Source listed as patent US20260271949A1.

Provide the reported Quant. MBEC of each item.
# Tested on: S. enterica biofilms
# test.name: Quantitative determination of MBEC (Log10 reduction assay)
# Type: cell-based, Salmonella enterica
# test.parameters: S. enterica; >3 log10 reduction or max kill; fluence 10.2 J/cm^2; PS alone; Blue 470 nm (Erythrosin B: Green 527 nm)

INSERT INTO measurements (molecule, measure_name, measured_value) VALUES
  ('COc1cc(/C=C/C(=O)CC(=O)/C=C/c2ccc(O)c(OC)c2)ccc1O [PS3, Curcumin]', 'Quant. MBEC', '>0.001 % w/V');

Return reported Quant. MBEC values for all items listed beneath this line.
1. O=S(=O)([O-])c1ccc(N=Nc2c(O)ccc3cc(S(=O)(=O)[O-])ccc23)cc1.[Na+].[Na+] [PS2, Sunset Yellow FCF]
2. Cc1cc2nc3c(=O)[nH]c(=O)nc-3n(C[C@H](O)[C@H](O)[C@H](O)COP(=O)([O-])O)c2cc1C.[Na+] [PS1, Riboflavin-5′-Phosphate Sodium USP]

## Output
>1 % w/V
>1 % w/V

## Input Which Quant. MBEC reading was recorded for the molecule O=C1OC2(c3ccccc31)c1cc(I)c(O)c(I)c1Oc1c2cc(I)c(O)c1I [PS4, Erythrosin B] ?
## Output >1 % w/V

###

# Tested on: S. enterica biofilms
# test.name: Quantitative determination of MBEC (Log10 reduction assay)
# Type: cell-based, Salmonella enterica
# test.parameters: S. enterica; >3 log10 reduction or max kill; fluence 0 (Dark) J/cm^2; PS alone; Blue 470 nm (Erythrosin B: Green 527 nm)
Provide the reported Quant. MBEC of each item.

Return reported Quant. MBEC values for all items listed beneath this line.
1. COc1cc(/C=C/C(=O)CC(=O)/C=C/c2ccc(O)c(OC)c2)ccc1O
2. O=S(=O)([O-])c1ccc(N=Nc2c(O)ccc3cc(S(=O)(=O)[O-])ccc23)cc1.[Na+].[Na+]
3. O=C1OC2(c3ccccc31)c1cc(I)c(O)c(I)c1Oc1c2cc(I)c(O)c1I
4. Cc1cc2nc3c(=O)[nH]c(=O)nc-3n(C[C@H](O)[C@H](O)[C@H](O)COP(=O)([O-])O)c2cc1C.[Na+] [PS1, Riboflavin-5′-Phosphate Sodium USP]

## Output
[">0.001 % w/V", ">1 % w/V", ">1 % w/V", ">1 % w/V"]

###

Provide the reported MBEC of each item.
# Tested on: S. enterica biofilms
# test.name: MBEC (turbidity assay), biofilm recovery plate
# Format: cell-based, Salmonella enterica
# test.parameters: fluence 10.2 J/cm^2, PS alone, Blue 470 nm (Erythrosin B: Green 527 nm)

Worked examples, 3 compounds total:
INSERT INTO assay_data (compound, measured_value) VALUES
  ('COc1cc(/C=C/C(=O)CC(=O)/C=C/c2ccc(O)c(OC)c2)ccc1O [PS3, Curcumin]', '>0.001 % w/V'),
  ('O=S(=O)([O-])c1ccc(N=Nc2c(O)ccc3cc(S(=O)(=O)[O-])ccc23)cc1.[Na+].[Na+] [PS2, Sunset Yellow FCF]', '>1 % w/V'),
  ('O=C1OC2(c3ccccc31)c1cc(I)c(O)c(I)c1Oc1c2cc(I)c(O)c1I [PS4, Erythrosin B]', '0.01 (Ø) % w/V');

Note: attention shifts to another entry.
## Input Short answer please: MBEC, S. enterica biofilms, entry Cc1cc2nc3c(=O)[nH]c(=O)nc-3n(C[C@H](O)[C@H](O)[C@H](O)COP(=O)([O-])O)c2cc1C.[Na+] [PS1, Riboflavin-5′-Phosphate Sodium USP]
## Output >1 % w/V
